meta.source: patent US11274101B2

Reported inhibition at 10 µM values are given for each entry in this list.
- assayedTarget: His-hMAGL (recombinant polyhistidine tagged human MAGL protein) (Homo sapiens, UniProt Q99685)
- Construct: made in house; host or cells: E. coli BL21(DE3)
- Sequence (Q99685 1-303): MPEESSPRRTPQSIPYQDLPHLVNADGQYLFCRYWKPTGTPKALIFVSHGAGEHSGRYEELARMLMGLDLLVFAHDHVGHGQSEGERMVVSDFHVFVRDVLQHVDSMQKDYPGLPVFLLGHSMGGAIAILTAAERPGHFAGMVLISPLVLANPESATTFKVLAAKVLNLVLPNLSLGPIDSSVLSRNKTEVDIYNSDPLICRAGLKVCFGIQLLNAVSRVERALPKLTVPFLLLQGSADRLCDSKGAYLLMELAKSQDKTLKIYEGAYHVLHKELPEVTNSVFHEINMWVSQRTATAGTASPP
- assayText: Measurement of MAGL inhibitory activity (arachidonic acid production from 2-arachidonylglycerol, RapidFire-mass spectrometry)
- Format: biochemical
- conditionParameters: test compound 10 μM; MAGL inhibitory rate
- Method: The His-hMAGL obtained above was diluted with enzyme reaction buffer (10 mM Tris-HCl, pH 7.5, 1 mM EDTA, 0.025 (w/v) % Triton X-100, 0.01% Bovine serum albumin) to a concentration of 7.5 ng/mL. […] The amount of arachidonic acid in the obtained enzyme reaction mixture was calculated by measuring by RapidFire-mass spectrometry and correcting by the amount of arachidonic acid-d8. […] MAGL inhibitory rate (%) was calculated according to the following calculation formula. […]
observationType: inhibition at 10 µM (%)

{"columns": ["molecule", "recordedMeasurement"],
 "data": [
  ["O=C1NC2(CO1)CN(C(=O)O[C@H]1C[C@@H](OCc3ccccc3)C1)C2 [Example 2]", 101],
  ["O=C1NC2(CO1)CN(C(=O)O[C@H]1C[C@H](COc3ccc(C(F)(F)F)cc3F)C1)C2 [Example 22]", 103],
  ["O=C1NC2(CO1)CN(C(=O)O[C@H]1C[C@H](Oc3ccc(F)c(F)c3F)C1)C2 [Example 39]", 100],
  ["Cc1cc(O[C@H]2C[C@@H](OC(=O)N3CC4(COC(=O)N4)C3)C2)ccc1F [Example 50]", 99],
  ["Cc1cc(CO[C@H]2C[C@@H](OC(=O)N3CC4(COC(=O)N4)C3)C2)ccc1Cl [Example 4]", 100],
  ["O=C1NC2(CO1)CN(C(=O)O[C@H]1C[C@@H](OCc3c(F)cc(F)cc3F)C1)C2 [Example 8]", 100],
  ["O=C1NC2(CO1)CN(C(=O)O[C@H]1C[C@H](OCc3ccc(C(F)(F)F)cc3F)C1)C2 [Example 62]", 99],
  ["O=C1NC2(CO1)CN(C(=O)O[C@H]1C[C@@H](OCc3ccc(C(F)(F)F)cc3F)C1)C2 [Example 10]", 99],
  ["O=C1NC2(CO1)CN(C(=O)O[C@H]1C[C@@H](Oc3ccc(F)c(F)c3F)C1)C2 [Example 51]", 99],
  ["O=C1NC2(CO1)CN(C(=O)O[C@H]1C[C@@H](OCc3ccc(Cl)c(Cl)c3)C1)C2 [Example 9]", 99],
  ["O=C1NC2(CO1)CN(C(=O)O[C@H]1C[C@@H](COCc3ccc(F)c(F)c3F)C1)C2 [Example 31]", 100],
  ["O=C1NC2(CO1)CN(C(=O)O[C@H]1C[C@@H](Oc3ccc(C(F)(F)F)cc3)C1)C2 [Example 48]", 100],
  ["Cc1ccc(CO[C@H]2C[C@@H](OC(=O)N3CC4(COC(=O)N4)C3)C2)c(F)c1F [Example 5]", 99],
  ["O=C1NC2(CO1)CN(C(=O)OC[C@H]1C[C@@H](Oc3ccc(C(F)(F)F)cc3F)C1)C2 [Example 24]", 103],
  ["O=C1NC2(CO1)CN(C(=O)OC[C@H]1C[C@@H](Oc3ccc(C(F)(F)F)cc3Cl)C1)C2 [Example 26]", 100],
  ["O=C1NC2(CO1)CN(C(=O)O[C@H]1C[C@@H](OCc3ccc(C(F)(F)F)c(Cl)c3)C1)C2 [Example 11]", 100],
  ["O=C1NC2(CO1)CN(C(=O)O[C@H]1C[C@@H](Oc3c(F)cc(F)cc3F)C1)C2 [Example 46]", 102],
  ["O=C1NC2(CO1)CN(C(=O)O[C@H]1C[C@H](Oc3c(F)cc(F)cc3F)C1)C2 [Example 43]", 102],
  ["Cc1ccc(CO[C@H]2C[C@@H](OC(=O)N3CC4(COC(=O)N4)C3)C2)cc1Cl [Example 3]", 101],
  ["O=C1NC2(CO1)CN(C(=O)O[C@H]1C[C@@H](Oc3ccc(Cl)cc3F)C1)C2 [Example 54]", 100],
  ["O=C1NC2(CO1)CN(C(=O)O[C@H]1C[C@@H](Oc3ccc(F)cc3Cl)C1)C2 [Example 44]", 103],
  ["O=C1NC2(CO1)CN(C(=O)O[C@H]1C[C@H](OCc3ccccc3)C1)C2 [Example 42]", 99],
  ["O=C1NC2(CO1)CN(C(=O)O[C@H]1C[C@@H](Oc3ccc(C(F)(F)F)cc3F)C1)C2 [Example 1]", 100],
  ["O=C1NC2(CO1)CN(C(=O)OC[C@H]1C[C@@H](Oc3c(F)cc(F)cc3F)C1)C2 [Example 23]", 100],
  ["Cc1ccc(O[C@H]2C[C@@H](OC(=O)N3CC4(COC(=O)N4)C3)C2)cc1F [Example 45]", 98],
  ["Cc1ccc(O[C@H]2C[C@@H](OC(=O)N3CC4(COC(=O)N4)C3)C2)c(F)c1 [Example 56]", 101],
  ["C[C@]1(OC(=O)N2CC3(COC(=O)N3)C2)C[C@@H](OCc2ccccc2)C1 [Example 58]", 93],
  ["O=C1NC2(CO1)CN(C(=O)O[C@H]1C[C@H](COc3ccc(F)c(F)c3F)C1)C2 [Example 21]", 100],
  ["O=C1NC2(CO1)CN(C(=O)O[C@H]1C[C@@H](OCc3ccc(F)cc3F)C1)C2 [Example 40]", 100],
  ["O=C1NC2(CO1)CN(C(=O)O[C@H]1C[C@@H](Oc3cccc(Cl)c3)C1)C2 [Example 49]", 100],
  ["O=C1NC2(CO1)CN(C(=O)O[C@H]1C[C@@H](COc3cc(F)c(F)cc3F)C1)C2 [Example 17]", 101],
  ["O=C1NC2(CO1)CN(C(=O)O[C@H]1CC[C@H](Oc3ccc(C(F)(F)F)cc3F)CC1)C2 [Example 37]", 101]
]}
